System: FMOC25_2 (patient-derived low-grade serous ovarian cancer cells)
assay_explanation: drug sensitivity score (DSS3, normalised partial AUC of % inhibition dose-response) (DSS (score)); higher = more sensitive (stronger inhibition of viability); extreme values may be limits of the assay
condition_label: 72 h; library: FO5A; assay format: 2D, 384-well, CellTiter-Glo
measured_endpoint: drug sensitivity score

Below, each entry is followed by its recorded drug sensitivity score result.
* COc1cc([C@@H]2c3cc4c(cc3[C@@H](O[C@@H]3O[C@@H]5CO[C@@H](C)O[C@H]5[C@H](O)[C@H]3O)[C@H]3COC(=O)[C@H]23)OCO4)cc(OC)c1O [Etoposide] | 2.9
* CC(C)(O)CC(=O)NCCn1ccc2ncnc(Nc3ccc(Oc4cccc(C(F)(F)F)c4)c(Cl)c3)c21 | 4.8
* O=C(CCCCCCNC(=O)c1cnc(N(c2ccccc2)c2ccccc2)nc1)NO | 6.7
* CC(=O)Nc1ccc(C(=O)Nc2ccccc2N)cc1 | 0
* OC[C@H]1O[C@@H](n2cnc3c2N=CNC[C@H]3O)C[C@@H]1O | 0
* CC(=O)c1cc2c(o1)C(=O)c1ccccc1C2=O | 15
* CNC(=O)c1nn(C)c2c1C(C)(C)Cc1cnc(Nc3ccc(N4CCN(C)CC4)cc3)nc1-2 | 13.1
* Nc1ccccc1NC(=O)c1ccc(CNC(=O)OCc2cccnc2)cc1 | 3.7

# evaluate next
Under FMOC25_2, report drug sensitivity score for CC(=O)c1c(C)c2cnc(Nc3ccc(N4CCNCC4)cn3)nc2n(C2CCCC2)c1=O
5.2
